# system: GABA-A receptor; alpha-2/beta-3/gamma-2 (Homo sapiens, UniProt P18507+P28472+P47869)
# Sequence (P18507 whole entry): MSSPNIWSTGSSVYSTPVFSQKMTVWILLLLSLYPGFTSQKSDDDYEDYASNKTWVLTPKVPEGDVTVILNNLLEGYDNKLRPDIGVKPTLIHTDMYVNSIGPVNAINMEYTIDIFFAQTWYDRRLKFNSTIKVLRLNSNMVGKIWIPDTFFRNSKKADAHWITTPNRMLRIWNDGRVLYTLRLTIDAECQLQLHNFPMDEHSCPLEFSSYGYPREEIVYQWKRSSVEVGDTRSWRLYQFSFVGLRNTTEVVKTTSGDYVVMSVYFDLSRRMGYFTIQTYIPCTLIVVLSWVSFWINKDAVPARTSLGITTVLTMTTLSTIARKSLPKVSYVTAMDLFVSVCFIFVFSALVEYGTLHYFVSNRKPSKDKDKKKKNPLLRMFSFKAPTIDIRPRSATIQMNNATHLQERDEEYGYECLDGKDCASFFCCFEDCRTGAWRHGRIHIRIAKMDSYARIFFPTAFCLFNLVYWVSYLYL
# Sequence (P28472 whole entry): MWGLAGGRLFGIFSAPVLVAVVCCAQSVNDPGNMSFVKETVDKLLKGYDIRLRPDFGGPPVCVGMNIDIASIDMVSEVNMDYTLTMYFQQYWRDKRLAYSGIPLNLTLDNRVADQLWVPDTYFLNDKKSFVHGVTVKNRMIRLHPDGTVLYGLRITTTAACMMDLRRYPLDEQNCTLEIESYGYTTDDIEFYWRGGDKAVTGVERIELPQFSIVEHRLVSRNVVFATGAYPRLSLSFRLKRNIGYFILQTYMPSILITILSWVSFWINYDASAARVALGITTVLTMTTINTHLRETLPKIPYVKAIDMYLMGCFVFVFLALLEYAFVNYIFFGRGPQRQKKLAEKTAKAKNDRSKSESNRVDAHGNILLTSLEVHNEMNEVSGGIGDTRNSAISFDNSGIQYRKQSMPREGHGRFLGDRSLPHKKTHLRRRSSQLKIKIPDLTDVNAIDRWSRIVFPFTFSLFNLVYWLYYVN
# Sequence (P47869 whole entry): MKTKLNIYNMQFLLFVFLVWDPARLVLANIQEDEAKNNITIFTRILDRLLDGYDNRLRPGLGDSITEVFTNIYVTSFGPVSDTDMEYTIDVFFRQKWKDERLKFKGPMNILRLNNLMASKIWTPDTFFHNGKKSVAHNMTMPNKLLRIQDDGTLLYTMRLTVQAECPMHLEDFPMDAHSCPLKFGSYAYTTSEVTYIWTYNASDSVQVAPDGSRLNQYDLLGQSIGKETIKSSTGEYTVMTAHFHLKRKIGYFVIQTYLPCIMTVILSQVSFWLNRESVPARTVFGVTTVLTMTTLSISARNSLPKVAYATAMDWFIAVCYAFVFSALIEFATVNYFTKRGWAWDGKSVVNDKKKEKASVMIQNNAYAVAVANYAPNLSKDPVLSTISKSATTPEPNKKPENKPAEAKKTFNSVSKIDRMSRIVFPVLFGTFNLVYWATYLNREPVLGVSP
# assay comment: Displacement of [3H]- Ro 15-1788 binding from human GABA-A receptor alpha-2-beta-3-gamma-2 subunits
quantity measured: Ki (nM)
Numbers only here, please. The scale is nM.

| sample smiles | Ki, nM |
| --- | --- |
| CC(C)Sc1sc(-c2cc[nH]n2)c2c1C(=O)CC(C)(C)C2 | 12 |
| CCSc1sc(-c2cc[nH]n2)c2c1C(=O)CC(C)(C)C2 | 16 |
| CSc1sc(-c2nccs2)c2c1C(=O)CC(C)(C)C2 | 44 |
| CC1(C)CC(=O)c2c(SSc3nccs3)sc(-c3cc[nH]n3)c2C1 | 19 |
| CSc1sc(-c2cccnc2)c2c1C(=O)CC(C)(C)C2 | 31 |
| CCc1c(C(=O)OC)ncc2[nH]c3cc(OC)c(OC)cc3c12 | 13 |
| CSc1sc(-c2ccncc2)c2c1C(=O)CC(C)(C)C2 | 43 |
| CSc1sc(-c2ccccn2)c2c1C(=O)CC(C)(C)C2 | 26 |

CC1(C)CC(=O)c2c(SCCO)sc(-c3ccccn3)c2C1 tested on GABA-A receptor; alpha-2/beta-3/gamma-2 (Homo sapiens, UniProt P18507+P28472+P47869) gave Ki: 5.2

// Ki (GABA-A receptor; alpha-2/beta-3/gamma-2 (Homo sapiens, UniProt P18507+P28472+P47869)) for CSc1sc(-c2cc[nH]n2)c2c1C(=O)CC(C)(C)C2 = 56

// assay GABA-A receptor; alpha-2/beta-3/gamma-2 (Homo sapiens, UniProt P18507+P28472+P47869), entry CC1(C)CC(=O)c2c(SCCO)sc(-c3cc[nH]n3)c2C1 , Ki value = 21

Lab note: molecule CC1(C)CC(=O)c2c(SCCO)sc(-c3nccs3)c2C1 tested on GABA-A receptor; alpha-2/beta-3/gamma-2 (Homo sapiens, UniProt P18507+P28472+P47869); recorded Ki was 16

Measured values drawn from ChEMBL document CHEMBL1135580 for this set.
